Give IC50 for every item shown.
test system: PD-1/PD-L1 interaction (PD-1-Ig / PD-L1-His) (Homo sapiens (Human), UniProt Q9NZQ7)
Sequence (Q9NZQ7 other isoform, or with tags, fused parts or gaps): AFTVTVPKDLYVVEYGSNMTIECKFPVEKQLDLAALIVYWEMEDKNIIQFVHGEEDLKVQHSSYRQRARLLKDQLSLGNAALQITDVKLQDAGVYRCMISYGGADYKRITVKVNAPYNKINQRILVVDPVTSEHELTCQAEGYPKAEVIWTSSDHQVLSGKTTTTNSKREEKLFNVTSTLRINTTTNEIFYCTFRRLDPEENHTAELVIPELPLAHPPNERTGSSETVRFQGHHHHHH
protocol text: PD-1/PD-L1 Homogenous Time-Resolved Fluorescence (HTRF) binding assay
measurement parameters: PD-1/PD-L1 HTRF binding assay; value given as range class; read-out: Range or IC50

Q: Request the reported IC50 associated with Cc1c(COc2cc(OCc3cncc(C#N)c3)c(CN[C@@H](CCCN)C(=O)O)cc2Cl)cccc1-c1ccc2c(c1)OCCO2 [Example 2003]
A: 0.6 to 10 nM

Q: Request the reported IC50 associated with CC(=O)NCCNCc1ccc(OCc2cccc(-c3ccccc3)c2C)cc1OCc1ccccc1OC(F)F [Example 1085]
A: 100 to 20000 nM

Q: Request the reported IC50 associated with CCOc1cc(OCc2cccc(-c3ccccc3)c2C)ccc1CNCCNC(C)=O [Example 1044]
A: 100 to 20000 nM

Q: Request the reported IC50 associated with Cc1c(COc2ccc(CN[C@H](CO)CC(=O)O)c(OCc3cccc(C#N)c3)c2)cccc1-c1ccccc1 [Example 1021]
A: 0.6 to 10 nM

---

Give pIC50 for every item shown.
test system: PD-1/PD-L1 interaction (PD-1-Ig / PD-L1-His) (Homo sapiens (Human), UniProt Q9NZQ7)
protocol text: PD-1/PD-L1 Homogenous Time-Resolved Fluorescence (HTRF) binding assay
measurement parameters: PD-1/PD-L1 HTRF binding assay; value given as range class; read-out: Range or IC50
pIC50: −log10 of the molar value.

Q: Request the reported pIC50 associated with CC(=O)NCCNCc1ccc(OCc2cccc(-c3ccccc3)c2C)cc1OCc1cc(C)cc(F)c1 [Example 1113]
A: 4.70 to 7.00

Q: Request the reported pIC50 associated with Cc1c(COc2cc(OCc3cccc(S(C)(=O)=O)c3)c(CN[C@@](C)(CO)C(=O)O)cc2Cl)cccc1-c1ccc2c(c1)OCCO2 [Example 3021]
A: 8.00 to 9.22

Q: Request the reported pIC50 associated with Cc1cc(OCc2cccc(-c3ccc4c(c3)OCCO4)c2C)cc(OCc2cccc(C#N)c2)c1CNC[C@@H](O)CC(=O)O [Example 1003]
A: 8.00 to 9.22

Q: Request the reported pIC50 associated with Cc1c(COc2ccc(CN[C@@](C)(CO)C(=O)O)c(OCc3cccc(C#N)c3)c2Cl)cccc1-c1ccc2c(c1)OCCO2 [Example 1238]
A: 4.70 to 7.00

Q: Request the reported pIC50 associated with CSCC[C@H](NCc1cc(Cl)c(OCc2cccc(-c3ccc4c(c3)OCCO4)c2C)cc1OCc1cccc(C#N)c1)C(=O)O [Example 1202]
A: 7.00 to 8.00

Q: Request the reported pIC50 associated with CC(=O)NCCNCc1ccc(OCc2cccc(-c3ccccc3)c2C)cc1OCc1ccc(C(C)=O)cc1 [Example 1040]
A: 4.70 to 7.00

Q: Request the reported pIC50 associated with Cc1c(COc2cc(OCc3cccc(C#N)c3)c(CN3CC[C@H](O)[C@H]3C(=O)O)cc2Cl)cccc1-c1ccc2c(c1)OCCO2 [Example 1219]
A: 8.00 to 9.22

Q: Request the reported pIC50 associated with Cc1c(COc2cc(OCc3cccc(C#N)c3)c(CNC(C(=O)O)c3c[nH]c4ccccc34)cc2Cl)cccc1-c1ccc2c(c1)OCCO2 (stereo not drawn) [Example 1211]
A: 7.00 to 8.00

Q: Request the reported pIC50 associated with Cc1c(COc2cc(OCc3cncc(C#N)c3)c(CN[C@@H](CCC(=O)O)C(=O)O)cc2Cl)cccc1-c1ccc2c(c1)OCCO2 [Example 2012]
A: 8.00 to 9.22

Q: Request the reported pIC50 associated with Cc1c(COc2cc(OCc3cccc(C#N)c3)c(CN(C)[C@@H](CO)C(=O)O)cc2Cl)cccc1-c1ccc2c(c1)OCCO2 [Example 1183]
A: 8.00 to 9.22

Q: Request the reported pIC50 associated with CC(=O)NCCNCc1ccc(OCc2cccc(-c3ccc4c(c3)OCCO4)c2C)cc1OCc1cc(C#N)ccn1 [Example 1130]
A: 7.00 to 8.00

Q: Request the reported pIC50 associated with Cc1cc(CN2CCCC[C@H]2C(=O)O)c(OCc2cccnc2)cc1OCc1cccc(-c2ccc3c(c2)OCCO3)c1C [Example 1279]
A: 8.00 to 9.22

---

Give pIC50 for every item shown.
test system: PD-1/PD-L1 interaction (PD-1-Ig / PD-L1-His) (Homo sapiens (Human))
protocol text: PD-1/PD-L1 Homogenous Time-Resolved Fluorescence (HTRF) binding assay
measurement parameters: PD-1/PD-L1 HTRF binding assay; value given as range class; read-out: Range or IC50
pIC50: −log10 of the molar value.

Q: Request the reported pIC50 associated with CC(=O)NCCNCc1ccc(OCc2cccc(-c3ccccc3)c2C)cc1OCC(F)(F)F
A: 4.70 to 7.00

Q: Request the reported pIC50 associated with CC(=O)NCCNCc1ccc(OCc2cccc(-c3ccccc3)c2C)cc1OCc1ccccc1Cl
A: 4.70 to 7.00

Q: Request the reported pIC50 associated with CC(=O)NCCNCc1ccc(OCc2cccc(-c3ccccc3)c2C)cc1OCc1ccccc1C#N
A: 4.70 to 7.00

Q: Request the reported pIC50 associated with CC(=O)NCCNCc1ccc(OCc2cccc(-c3ccccc3)c2C)cc1OCc1cc(F)cc(C(F)(F)F)c1
A: 4.70 to 7.00

Q: Request the reported pIC50 associated with CC(=O)NCCNCc1ccc(OCc2cccc(-c3ccccc3)c2C)cc1OCc1ccc(C(N)=O)cc1
A: 4.70 to 7.00

Q: Request the reported pIC50 associated with Cc1c(COc2cc(OCc3cncc(S(C)(=O)=O)c3)c(CN[C@@](C)(CO)C(=O)O)cc2Cl)cccc1-c1ccc2c(c1)OCCO2
A: 8.00 to 9.22

Q: Request the reported pIC50 associated with COc1cc(OCc2cccc(-c3ccc4c(c3)OCCO4)c2C)cc(OCc2cccc(C#N)c2)c1CNC[C@@H](O)CC(=O)O
A: 8.00 to 9.22

Q: Request the reported pIC50 associated with Cc1cc(CN2CCCC[C@H]2C(=O)O)c(OCc2ccc(F)c(C#N)c2)cc1OCc1cccc(-c2ccc3c(c2)OCCO3)c1C
A: 8.00 to 9.22

Q: Request the reported pIC50 associated with CC(=O)NCCNCc1ccc(OCc2cccc(-c3ccccc3)c2C)cc1OCc1cc(F)cc(Cl)c1
A: 4.70 to 7.00

Q: Request the reported pIC50 associated with Cc1c(COc2cc(OCc3cccc(C#N)c3)c(CN(C)[C@@H](CC(=O)O)C(=O)O)cc2Cl)cccc1-c1ccc2c(c1)OCCO2
A: 8.00 to 9.22

---

test system: PD-1/PD-L1 interaction (PD-1-Ig / PD-L1-His) (Homo sapiens (Human))
protocol text: PD-1/PD-L1 Homogenous Time-Resolved Fluorescence (HTRF) binding assay
measurement parameters: PD-1/PD-L1 HTRF binding assay; value given as range class; read-out: Range or IC50
pIC50: −log10 of the molar value.
recorded endpoint: pIC50

Q: Request the reported pIC50 associated with Cc1c(COc2ccc(CN[C@H](CO)C(=O)O)c(OCc3ccc(F)c(C#N)c3)c2)cccc1-c1ccccc1 [Example 1332]
A: 8.00 to 9.22

Q: Request the reported pIC50 associated with Cc1c(COc2cc(OCc3cccc(C#N)c3)c(CNC(Cc3c[nH]c4ncccc34)C(=O)O)cc2Cl)cccc1-c1ccc2c(c1)OCCO2 (centres unmarked) [Example 1185]
A: 7.00 to 8.00

Q: Request the reported pIC50 associated with Cc1c(COc2cc(OCc3ccnc(C(=O)N(C)C)c3)c(CO)cc2Cl)cccc1-c1ccc2c(c1)OCCO2 [Example 3019]
A: 4.70 to 7.00

Q: Request the reported pIC50 associated with Cc1c(COc2cc(OCc3cccc(C#N)c3)c(CNC3(C(=O)O)CC3)cc2Cl)cccc1-c1ccc2c(c1)OCCO2 [Example 1177]
A: 8.00 to 9.22

Q: Request the reported pIC50 associated with Cc1c(COc2ccc(CNC(C)(CO)C(=O)O)c(OCc3cccc(C#N)c3)c2)cccc1-c1ccccc1 (centres unmarked) [Example 1014]
A: 8.00 to 9.22

---

test system: PD-1/PD-L1 interaction (PD-1-Ig / PD-L1-His) (Homo sapiens (Human), UniProt Q9NZQ7)
protocol text: PD-1/PD-L1 Homogenous Time-Resolved Fluorescence (HTRF) binding assay
measurement parameters: PD-1/PD-L1 HTRF binding assay; value given as range class; read-out: Range or IC50
pIC50: −log10 of the molar value.
Give pIC50 for every item shown.

Q: Request the reported pIC50 associated with Cc1c(COc2ccc(CN3CCCC[C@H]3C(=O)O)c(OCc3cccc(C#N)c3)c2Cl)cccc1-c1ccccc1 [Example 1233]
A: 4.70 to 7.00

Q: Request the reported pIC50 associated with Cc1cc(CNC[C@@H](O)CC(=O)O)c(OCc2cncc(C#N)c2)cc1OCc1cccc(-c2ccc3c(c2)OCCO3)c1C#N [Example 1307]
A: 8.00 to 9.22

Q: Request the reported pIC50 associated with Cc1cc(CN[C@H](CO)C(=O)O)c(OCc2cncc(C#N)c2)cc1OCc1cccc(-c2ccc3c(c2)OCCO3)c1C#N [Example 1310]
A: 8.00 to 9.22

Q: Request the reported pIC50 associated with CC(=O)NCCNCc1ccc(OCc2cccc(-c3ccccc3)c2C)cc1OCc1cccc(C(=O)OC(C)(C)C)c1 [Example 1105]
A: 4.70 to 7.00

Q: Request the reported pIC50 associated with Cc1cc(CN2CCCC[C@H]2C(=O)O)c(OCc2cncc(C#N)c2)cc1OCc1cccc(-c2ccc3c(c2)OCCO3)c1C [Example 1285]
A: 8.00 to 9.22

Q: Request the reported pIC50 associated with CC[C@H](NCc1cc(Cl)c(OCc2cccc(-c3ccc4c(c3)OCCO4)c2C)cc1OCc1cccc(C#N)c1)C(=O)O [Example 1201]
A: 8.00 to 9.22

Q: Request the reported pIC50 associated with CC(=O)NCCNCc1ccc(OCc2cccc(-c3ccccc3)c2C)cc1OCc1cccc2cccnc12 [Example 1074]
A: 4.70 to 7.00

Q: Request the reported pIC50 associated with Cc1c(COc2cc(OCc3cccc(C#N)c3)c(CN3CCCC[C@H]3C(=O)O)cc2Br)cccc1-c1ccc2c(c1)OCCO2 [Example 1302]
A: 8.00 to 9.22
